# Test summary: Microsomal stability assay, mouse liver microsomes (MLM)
# Format: in vitro ADME
# Condition summary: 0.5 mg/mL protein, 1 μM substrate
The following compounds are shown together with reported microsomal CLint at 1 μM values.
Give the quantity in µL/min/mg, number only.

Study these solved cases before continuing.
>>> observed_measurement("COc1cncc(-c2c[nH]c(C3COc4ccc(Oc5ccnc6c5CCC(=O)N6)cc4C3)n2)c1 (centres unmarked)")
16.5
>>> observed_measurement("O=C1CCc2c(Oc3ccc4c(c3)CC(c3nc5cc(F)c(F)cc5[nH]3)CO4)ccnc2N1 (centres unmarked)")
30.5
>>> observed_measurement("c1ccc(-c2c[nH]c(C3COc4ccc(OC5CCOCC5)cc4C3)n2)cc1 (centres unmarked)")
123

microsomal CLint at 1 μM for CN(C)Cc1cc(C(F)(F)F)c2nc(C3COc4ccc(Oc5ccnc6c5CCC(=O)N6)cc4C3)[nH]c2c1 (centres unmarked) ?
8.6

What about this compound? COc1ccc(-c2c[nH]c(C3COc4ccc(Oc5ccnc6c5CCC(=O)N6)cc4C3)n2)cc1 (centres unmarked)
45.9

What about this compound? O=C1CCc2c(Oc3ccc4c(c3)CN(C(=O)Nc3ccc(C(F)(F)F)cc3)CC4)ccnc2N1
32.5

What about this compound? O=C1CCc2c(Oc3ccc4c(c3)CC(c3nc5c(C(F)(F)F)cccc5[nH]3)CO4)ccnc2N1 (centres unmarked)
148

What about this compound? CN(C)Cc1cc(-c2c[nH]c(C3COc4ccc(Oc5ccnc6c5CCC(=O)N6)cc4C3)n2)cc(C(F)(F)F)c1 (centres unmarked)
39.2

====

# System: WiDr cells
# Test summary: WiDr CellTiter-Glo 3D cell proliferation assay
# Format: cell-based
# Condition summary: Homo sapiens; WiDr cells, 3D proliferation; read-out: 3D WiDr pGI50 (converted)
Readout kind: GI50 (nM)
Give the quantity in nM, number only.

Study these solved cases before continuing.
>>> observed_measurement("O=C(Nc1cc(Oc2ccc3c(c2)CC(c2nc(-c4ccccc4)c[nH]2)CO3)ccn1)C1CC1 (racemic) [Compound 136]")
170
>>> observed_measurement("O=C1CCc2c(Oc3ccc4c(c3)CC(c3nc(-c5cncc(C(F)F)c5)c[nH]3)CO4)ccnc2N1 (stereo not drawn) [Compound 105]")
603
>>> observed_measurement("Cc1ccc(-c2c[nH]c(C3COc4ccc(Oc5ccnc6c5CCC(=O)N6)cc4C3)n2)s1 (stereo not drawn) [Compound 110]")
200
>>> observed_measurement("Cn1ncc2ccc(-c3c[nH]c(C4COc5ccc(Oc6ccnc7c6CCC(=O)N7)cc5C4)n3)cc21 (stereo not drawn) [Compound 130]")
1660
>>> observed_measurement("CC(=O)Nc1cc(Oc2ccc3c(c2)CC(c2nc(-c4ccccc4)c[nH]2)CO3)ccn1 (stereo not drawn) [Compound 156]")
269

GI50 for O=C(Nc1cc(Oc2ccc3c(c2)CC(c2nc(-c4ccc(F)cc4)c[nH]2)CO3)ccn1)C1CC1 (stereo not drawn) [Compound 155] ?
631

What about this compound? O=C(CN1CC(O)C1)Nc1cc(Oc2ccc3c(c2)CC(c2nc(-c4ccccc4)c[nH]2)CO3)ccn1 (stereo not drawn) [Compound 153]
5620

What about this compound? Cc1cc(-c2c[nH]c(C3COc4ccc(Oc5ccnc6c5CCC(=O)N6)cc4C3)n2)n(C)n1 (stereo not drawn) [Compound 106]
1550

What about this compound? O=C(CN1CCCC1)Nc1cc(Oc2ccc3c(c2)CC(c2nc(-c4ccccc4)c[nH]2)CO3)ccn1 (stereo not drawn) [Compound 152]
5620

What about this compound? Cc1cc(-c2c[nH]c(C3COc4ccc(Oc5ccnc6c5CCC(=O)N6)cc4C3)n2)n(CC(F)(F)F)n1 (stereo not drawn) [Compound 126]
15100

What about this compound? O=C(Cn1ccnc1)Nc1cc(Oc2ccc3c(c2)CC(c2nc(-c4ccccc4)c[nH]2)CO3)ccn1 (stereo not drawn) [Compound 144]
380

What about this compound? O=C(CN1CCOCC1)Nc1cc(Oc2ccc3c(c2)CC(c2nc(-c4ccccc4)c[nH]2)CO3)ccn1 (stereo not drawn) [Compound 149]
2240

What about this compound? O=C1CCc2c(Oc3ccc4c(c3)CC(c3nc(C5CCOCC5)c[nH]3)CO4)ccnc2N1 (stereo not drawn) [Compound 132]
1150

What about this compound? O=C(Nc1nccc(Oc2ccc3c(c2)CC(c2nc(-c4ccccc4)c[nH]2)CO3)n1)C1CC1 (stereo not drawn) [Compound 148]
1200

What about this compound? CCc1cc(-c2c[nH]c(C3COc4ccc(Oc5ccnc6c5CCC(=O)N6)cc4C3)n2)n(C)n1 (stereo not drawn) [Compound 111]
1020

====

# Test summary: Plasma protein binding assay, mouse plasma (mPPB)
# Assay type: in vitro ADME
# Condition summary: 5 μM, equilibrium dialysis 4 hours 37° C.
Classification field: enter Yes for mPPB (% free) values not below 0.9 % free, No for values below it.

Recorded results for 5 molecules are shown here.
>>> classification("N#Cc1ccc2[nH]c(C3COc4ccc(Oc5ccnc6c5CCC(=O)N6)cc4C3)nc2c1 (stereo not drawn)")
"Yes"
>>> classification("COc1ncc(-c2c[nH]c(C3COc4ccc(Oc5ccnc6c5CCC(=O)N6)cc4C3)n2)c(OC)n1 (stereo not drawn)")
"Yes"
>>> classification("CN(C)c1ccc2[nH]c(C3COc4ccc(Oc5ccnc6c5CCC(=O)N6)cc4C3)nc2c1 (stereo not drawn)")
"Yes"
>>> classification("O=C1CCc2c(Oc3ccc4c(c3)CC(c3nc5cc(C(F)(F)F)ccc5[nH]3)CO4)ccnc2N1 (stereo not drawn)")
"No"
>>> classification("CC(C)NCc1cc(-c2c[nH]c(C3COc4ccc(Oc5ccnc6c5CCC(=O)N6)cc4C3)n2)cc(C(F)(F)F)c1 (stereo not drawn)")
"Yes"

Test whether the molecule O=C1CCc2c(Oc3ccc4c(c3)CN(C(=O)NCc3ccccc3)CC4)ccnc2N1 records mPPB (% free) of 0.9 % free or higher.
Yes

What about this molecule? O=C1CCc2c(Oc3ccc4c(c3)CC(c3nc5cc(F)c(F)cc5[nH]3)CO4)ccnc2N1 (stereo not drawn)
No

====

The following molecules are shown together with reported microsomal CLint at 1 μM values.
# Test summary: Microsomal stability assay, mouse liver microsomes (MLM)
# Format: in vitro ADME
# Condition summary: 0.5 mg/mL protein, 1 μM substrate, 37° C.

microsomal CLint at 1 μM for CC(C)(C)c1cc(-c2c[nH]c(C3COc4ccc(Oc5ccnc6c5CCC(=O)N6)cc4C3)n2)ccn1 (stereo not shown) [Compound 121] ?
137 µL/min/mg

What about this molecule? O=C(CN1CCCC1)Nc1cc(Oc2ccc3c(c2)CC(c2nc(-c4ccccc4)c[nH]2)CO3)ccn1 (stereo not shown) [Compound 152]
259 µL/min/mg

What about this molecule? O=C(NC1CC1)c1cc(Oc2ccc3c(c2)CC(c2nc(-c4ccccc4)c[nH]2)CO3)ccn1 (stereo not shown) [Compound 158]
62.8 µL/min/mg

What about this molecule? COc1csc(-c2c[nH]c(C3COc4ccc(Oc5ccnc6c5CCC(=O)N6)cc4C3)n2)c1 (stereo not shown) [Compound 122]
70.8 µL/min/mg

What about this molecule? Cc1cc(-c2c[nH]c(C3COc4ccc(Oc5ccnc6c5CCC(=O)N6)cc4C3)n2)n(C2CC2)n1 (stereo not shown) [Compound 114]
12.6 µL/min/mg

What about this molecule? Cc1cc(-c2c[nH]c(C3COc4ccc(Oc5ccnc6c5CCC(=O)N6)cc4C3)n2)n(CC(F)(F)F)n1 (stereo not shown) [Compound 126]
55.7 µL/min/mg

What about this molecule? Cc1cc(-c2c[nH]c(C3COc4ccc(Oc5ccnc6c5CCC(=O)N6)cc4C3)n2)n(C)n1 (stereo not shown) [Compound 106]
17.1 µL/min/mg

====

# Test summary: Plasma protein binding assay, human plasma (hPPB)
# Format: in vitro ADME
# Condition summary: 5 μM, equilibrium dialysis 4 hours at 37° C.
# Experimental: Plasma Protein Binding Assay The plasma protein binding was determined by the equilibrium dialysis method. A known concentration of compound (5 μM) in previously frozen human or mouse plasma (Sera Labs) was dialysed against phosphate buffer using a RED device (Life Technologies) for 4 hours at 37° C. The concentration of compound in the protein containing (PC) and protein free (PF) sides of the dialysis membrane were determined by LC-MS/MS and the % free compound was determined by equation 4. […]
We'd kindly ask you to apply these hPPB (% free) classes: low band = under 0.5 % free, middle band = from 0.5 % free up to 0.8 % free, high band = 0.8 % free and over

Recorded results for 6 molecules are shown here.
>>> classification("CCc1cc(-c2c[nH]c(C3COc4ccc(Oc5ccnc6c5CCC(=O)N6)cc4C3)n2)n(C2CC2)n1 (stereo not drawn)")
"middle band"
>>> classification("O=C1CCc2c(Oc3ccc4c(c3)CC(c3nc(-c5ccc(C(F)(F)F)nc5)c[nH]3)CO4)ccnc2N1 (stereo not drawn)")
"middle band"
>>> classification("O=C(Cn1cncn1)Nc1cc(Oc2ccc3c(c2)CC(c2nc(-c4ccccc4)c[nH]2)CO3)ccn1 (stereo not drawn)")
"middle band"
>>> classification("CCc1cc(-c2c[nH]c(C3COc4ccc(Oc5ccnc6c5CCC(=O)N6)cc4C3)n2)n(C)n1 (stereo not drawn)")
"high band"
>>> classification("O=C1CCc2c(Oc3ccc4c(c3)CC(c3nc(-c5ccnc(C6CC6)c5)c[nH]3)CO4)ccnc2N1 (stereo not drawn)")
"middle band"
>>> classification("CC(C)(C)c1cc(-c2c[nH]c(C3COc4ccc(Oc5ccnc6c5CCC(=O)N6)cc4C3)n2)ccn1 (stereo not drawn)")
"low band"

// bin(item) where item = O=C1CCc2c(Oc3ccc4c(c3)CN(c3nc5ccccc5[nH]3)CC4)ccnc2N1
high band

What about this molecule? O=C(CN1CCCC1)Nc1cc(Oc2ccc3c(c2)CC(c2nc(-c4ccccc4)c[nH]2)CO3)ccn1 (stereo not drawn)
low band
